- Test system: TNFα-FL/Gaussia Luciferase
- Measurement Description: Dox Induced TNFα-FL-Gluc Assay
- Format: cell-based
- Reported Conditions: 24 hr Dox induction; 293FRT/TO cells; read-out: 24 hr Dox Inducible TNFaFLGluc 293FRT/TO: Mean IC50
In this section, each of the molecules is paired with its reported IC50.

[
  {
    "Smiles Entry": "CC(C)n1cc(/C=C/c2csc(NC(=O)c3cccn3Cc3ccnc(F)c3)n2)nc1C#N",
    "Test Target": "TNFα-FL/Gaussia Luciferase",
    "Lt Gt Eq": ">",
    "IC50 [µM]": 25
  },
  {
    "Smiles Entry": "O=C(Nc1nc(/C=C/c2coc(C3CCCCC3)n2)cs1)c1cccn1Cc1ccncc1",
    "Test Target": "TNFα-FL/Gaussia Luciferase",
    "Lt Gt Eq": "=",
    "IC50 [µM]": 6.46
  },
  {
    "Smiles Entry": "CC(=O)N(C)c1ccc(N2CCC[C@@H]2c2csc(NC(=O)c3cccn3Cc3ccncc3)n2)cc1",
    "Test Target": "TNFα-FL/Gaussia Luciferase",
    "Lt Gt Eq": "=",
    "IC50 [µM]": 0.554
  }
]

====

- Measurement Description: Liver Microsome Stability Assay (mouse)
- Reported Conditions: mouse liver microsomes, with NADPH, 1.0 uM compound
Test Readout: Liver Microsome Stability (Multiple Species): Mouse - % Remaining after 30 min w/NADPH (%)

[
  {
    "Smiles Entry": "O=C(Nc1nc(/C=C/c2cocn2)cs1)c1cccn1Cc1ccncc1",
    "Unit String": "%",
    "Numeric Result": 5.93
  },
  {
    "Smiles Entry": "O=C(Nc1nc([C@H]2CCCN2c2ccccc2)cs1)c1cccn1Cc1ccnnc1",
    "Unit String": "%",
    "Numeric Result": 6.44
  },
  {
    "Smiles Entry": "Cc1cccnc1N1CCC[C@@H]1c1csc(NC(=O)c2cccn2Cc2ccncc2)n1",
    "Unit String": "%",
    "Numeric Result": 0.21
  },
  {
    "Smiles Entry": "O=C(Nc1nc([C@H]2CCCN2c2ccc(O[C@H]3CCCNC3)cc2)cs1)c1cccn1Cc1ccnc(F)c1",
    "Unit String": "%",
    "Numeric Result": 71.7
  },
  {
    "Smiles Entry": "O=C(Nc1nc([C@H]2CCCN2c2ccc(OC3CCS(=O)(=O)CC3)cc2)cs1)c1cccn1Cc1ccnc(F)c1",
    "Unit String": "%",
    "Numeric Result": 25.2
  },
  {
    "Smiles Entry": "O=C(Nc1nc([C@H]2CCCN2c2ccccc2)cs1)c1cccn1-c1cccc2cnccc12",
    "Unit String": "%",
    "Numeric Result": 0.64
  },
  {
    "Smiles Entry": "Cc1nc(CCc2csc(NC(=O)c3cccn3Cc3ccncc3)n2)co1",
    "Unit String": "%",
    "Numeric Result": 0.27
  },
  {
    "Smiles Entry": "O=C(Nc1nc(/C=C/c2ncn3c2CCCC3)cs1)c1cccn1Cc1ccnc(F)c1",
    "Unit String": "%",
    "Numeric Result": 12.5
  }
]

====

- Measurement Description: Liver Microsome Stability Assay (monkey)
- Reported Conditions: monkey liver microsomes, with NADPH, 1.0 uM compound
# if measured Liver Microsome Stability (Multiple Species): Monkey - % Remaining after 30 min w/NADPH < 7%: YES  # else: NO

[
  {
    "Compound": "CC(C)n1ccc(/C=C/c2csc(NC(=O)c3cccn3Cc3ccncc3)n2)n1 [Compound B75]",
    "Qualitative Label": "YES"
  },
  {
    "Compound": "NC(=O)N1CC(Oc2ccc(N3CCC[C@@H]3c3csc(NC(=O)c4cccn4Cc4ccnc(F)c4)n3)cc2)C1 [Compound A130]",
    "Qualitative Label": "NO"
  },
  {
    "Compound": "Cc1ccc(/C=C/c2csc(NC(=O)c3cccn3Cc3ccnc(F)c3)n2)nc1F [Compound B49]",
    "Qualitative Label": "YES"
  },
  {
    "Compound": "Cc1cccc(Cn2cccc2C(=O)Nc2nc([C@H]3CCCN3c3ccccc3)cs2)c1 [Compound C120]",
    "Qualitative Label": "NO"
  },
  {
    "Compound": "O=C(Nc1nc([C@H]2CCCN2c2ccc(F)cc2)cs1)c1cccn1Cc1ccncc1 [Compound A25]",
    "Qualitative Label": "YES"
  },
  {
    "Compound": "O=C(Nc1nc([C@H]2CCCN2c2ccc(OC3CCOCC3)cc2)cs1)c1cccn1Cc1ccncc1 [Compound A1]",
    "Qualitative Label": "YES"
  },
  {
    "Compound": "CC(C)c1c(/C=C/c2csc(NC(=O)c3cccn3Cc3ccncc3)n2)ncn1C [Compound B85]",
    "Qualitative Label": "YES"
  }
]

====

- Test system: TNFα-FL/Gaussia Luciferase
- Measurement Description: Dox Induced TNFα-FL-Gluc Assay
- Format: cell-based
- Reported Conditions: ratio of TNFaFLGluc IC50 to PD1ssGluc IC50
Entry flag: criterion met if 24 hr Dox Inducible TNFaFLGluc 293FRT/TO: TNF/PD1 reaches 20; criterion not met if it does not.

[
  {
    "Compound": "CC(C)c1cccc2nc(/C=C/c3csc(NC(=O)c4cccn4Cc4ccncc4)n3)cn12 [Compound B76]",
    "Qualitative Label": "criterion met"
  },
  {
    "Compound": "NC(=O)c1ccc(N2CCC[C@@H]2c2csc(NC(=O)c3cccn3Cc3ccnc(F)c3)n2)cc1 [Compound A65]",
    "Qualitative Label": "criterion met"
  },
  {
    "Compound": "N#Cc1cc(C(=O)Nc2nc([C@H]3CCCN3c3ccccc3)cs2)n(Cc2ccnc(F)c2)c1 [Compound A149]",
    "Qualitative Label": "criterion not met"
  },
  {
    "Compound": "CS(=O)(=O)N1CCC(Oc2ccc(N3CCC[C@@H]3c3csc(NC(=O)c4cccn4Cc4ccnc(F)c4)n3)cc2)CC1 [Compound A128]",
    "Qualitative Label": "criterion not met"
  },
  {
    "Compound": "C[C@@H](N)c1ccc(N2CCC[C@@H]2c2csc(NC(=O)c3cccn3Cc3ccnc(F)c3)n2)cc1 [Compound A72]",
    "Qualitative Label": "criterion not met"
  },
  {
    "Compound": "O=C(Nc1ccc(N2CCC[C@@H]2c2csc(NC(=O)c3cccn3Cc3ccnc(F)c3)n2)cc1)O[C@H]1CCOC1 [Compound A174]",
    "Qualitative Label": "criterion met"
  }
]

====

- Measurement Description: Liver Microsome Stability Assay (rat)
- Reported Conditions: rat liver microsomes, with NADPH, 1.0 uM compound
// classify(record): look up Liver Microsome Stability (Multiple Species): Rat - % Remaining after 30 min w/NADPH in ranges bin 0 = under 1%, bin 1 = from 1% up to 20%, bin 2 = 20% and over

[
  {
    "Compound": "N#CCC1(Cn2cccc2C(=O)Nc2nc([C@H]3CCCN3c3ccccc3)cs2)COC1",
    "Qualitative Label": "bin 1"
  },
  {
    "Compound": "N#CC1CC(Cn2cccc2C(=O)Nc2nc([C@H]3CCCN3c3ccccc3)cs2)C1 (stereo partly shown)",
    "Qualitative Label": "bin 1"
  },
  {
    "Compound": "CC(C)n1ccnc1/C=C/c1csc(NC(=O)c2cccn2Cc2ccnc(F)c2)n1",
    "Qualitative Label": "bin 0"
  },
  {
    "Compound": "O=C(Nc1nc([C@H]2CCCN2c2ccccc2)cs1)c1cccn1CC1COC1",
    "Qualitative Label": "bin 1"
  },
  {
    "Compound": "O=C(Nc1nc(-c2ccccc2-c2ccccn2)cs1)c1cccn1Cc1ccnc(F)c1",
    "Qualitative Label": "bin 0"
  },
  {
    "Compound": "CC(C)c1cccc2nc(/C=C/c3csc(NC(=O)c4cccn4Cc4ccncc4)n3)cn12",
    "Qualitative Label": "bin 0"
  },
  {
    "Compound": "C[C@H](O)c1ccc(N2CCC[C@@H]2c2csc(NC(=O)c3cccn3Cc3ccnc(F)c3)n2)cc1",
    "Qualitative Label": "bin 1"
  },
  {
    "Compound": "CC(=O)N[C@@H](C)c1ccc(N2CCC[C@@H]2c2csc(NC(=O)c3cccn3Cc3ccnc(F)c3)n2)cc1",
    "Qualitative Label": "bin 2"
  },
  {
    "Compound": "Cc1ccc(/C=C/c2csc(NC(=O)c3cccn3CC3CCOCC3)n2)nc1F",
    "Qualitative Label": "bin 0"
  },
  {
    "Compound": "O=C(Nc1nc([C@H]2CCCN2c2ccc(OC(F)(F)F)cc2)cs1)c1cccn1CC1CCOCC1",
    "Qualitative Label": "bin 2"
  },
  {
    "Compound": "O=C(Nc1nc([C@H]2CCCN2c2ccccc2)cs1)c1cccn1Cc1cccnc1",
    "Qualitative Label": "bin 0"
  },
  {
    "Compound": "CC(=O)Nc1ccc(N2CCC[C@@H]2c2csc(NC(=O)c3cccn3Cc3ccnc(F)c3)n2)cc1F",
    "Qualitative Label": "bin 0"
  },
  {
    "Compound": "CC(C)c1ccc(/C=C/c2csc(NC(=O)c3cccn3CC3CCOCC3)n2)nc1",
    "Qualitative Label": "bin 0"
  },
  {
    "Compound": "CC(=O)N1CCC(Oc2ccc(N3CCC[C@@H]3c3csc(NC(=O)c4cccn4Cc4ccnc(F)c4)n3)cc2)C1 (stereo partly shown)",
    "Qualitative Label": "bin 2"
  },
  {
    "Compound": "O=C(Nc1nc([C@H]2CCCN2c2ccccc2)cs1)c1cccn1-c1csc2cnccc12",
    "Qualitative Label": "bin 1"
  },
  {
    "Compound": "Cc1cc(/C=C/c2csc(NC(=O)c3cccn3Cc3ccnc(F)c3)n2)no1",
    "Qualitative Label": "bin 1"
  },
  {
    "Compound": "CN1C(=O)OCC1/C=C/c1csc(NC(=O)c2cccn2Cc2ccncc2)n1 (stereo not shown)",
    "Qualitative Label": "bin 0"
  },
  {
    "Compound": "O=C(Nc1nc([C@H]2CCCN2c2ccc(Br)cc2)cs1)c1cccn1Cc1ccnc(F)c1",
    "Qualitative Label": "bin 2"
  },
  {
    "Compound": "C[C@H](N)c1ccc(N2CCC[C@@H]2c2csc(NC(=O)c3cccn3Cc3ccnc(F)c3)n2)cc1",
    "Qualitative Label": "bin 2"
  },
  {
    "Compound": "CC1CCn2cnc(/C=C/c3csc(NC(=O)c4cccn4Cc4ccnc(F)c4)n3)c2C1 (stereo not shown)",
    "Qualitative Label": "bin 1"
  },
  {
    "Compound": "O=C(Nc1nc([C@H]2CCCN2c2ccc(C(F)(F)F)cc2)cs1)c1cccn1CC1CCOCC1",
    "Qualitative Label": "bin 2"
  },
  {
    "Compound": "CC(C)OC(=O)Nc1ccc(N2CCC[C@@H]2c2csc(NC(=O)c3cccn3Cc3ccnc(F)c3)n2)cc1",
    "Qualitative Label": "bin 2"
  },
  {
    "Compound": "O=C(Nc1nc([C@H]2CCN(c3ccccn3)C2)cs1)c1cccn1Cc1ccncc1",
    "Qualitative Label": "bin 0"
  },
  {
    "Compound": "O=C(Nc1nc([C@H]2CCCN2c2ccc(CO)cc2)cs1)c1cccn1Cc1ccnc(F)c1",
    "Qualitative Label": "bin 0"
  },
  {
    "Compound": "O=C(Nc1nc([C@H]2CCCN2c2ccc(C3CC3)cc2)cs1)c1cccn1Cc1ccncc1",
    "Qualitative Label": "bin 2"
  },
  {
    "Compound": "CN(C)CCO[C@@H]1C[C@H](c2csc(NC(=O)c3cccn3Cc3ccncc3)n2)N(c2ccccc2)C1",
    "Qualitative Label": "bin 2"
  },
  {
    "Compound": "CC(C)c1cc(/C=C/c2csc(NC(=O)c3cccn3Cc3ccnc(F)c3)n2)n(C)n1",
    "Qualitative Label": "bin 2"
  },
  {
    "Compound": "CN(C)C(=O)Nc1ccc(N2CCC[C@@H]2c2csc(NC(=O)c3cccn3Cc3ccnc(F)c3)n2)cc1",
    "Qualitative Label": "bin 2"
  },
  {
    "Compound": "CC(CC#N)Cn1cccc1C(=O)Nc1nc([C@H]2CCCN2c2ccccc2)cs1 (stereo partly shown)",
    "Qualitative Label": "bin 1"
  },
  {
    "Compound": "CC(=O)N1CCC(Oc2ccc(N3CCC[C@@H]3c3csc(NC(=O)c4cccn4Cc4ccnc(F)c4)n3)c(C#N)c2)CC1",
    "Qualitative Label": "bin 1"
  }
]
